Protocol Details: Kinetic solubility in FeSSIF, FaSSIF and pH 7.4 PBS (HPLC)
Assay type: physicochemical
Details: FeSSIF, 37 °C, pH 5, fessif, thermodynamic from solid, FeSSIF (pH 5.0, 37° C.), 24 hours
Reported Endpoint: solubility at 24 h (µg/mL)
Your answer should be a plain number; it is taken to be in µg/mL.

For CC[C@@H]1CN(C(=O)NCC(F)(F)F)C[C@@H]1c1cnc2cnc3[nH]ccc3n12 [Form CSVI] , write its solubility at 24 h.
2200

---

Protocol Details: Kinetic solubility in FeSSIF, FaSSIF and pH 7.4 PBS (HPLC)
Assay type: physicochemical
Details: PBS, 25 °C, pH 7.4, aqueous buffer, thermodynamic from solid, pH 7.4, 25° C., 24 hours
Reported Endpoint: solubility at 24 h

Check the records and state solubility at 24 h for CC[C@@H]1CN(C(=O)NCC(F)(F)F)C[C@@H]1c1cnc2cnc3[nH]ccc3n12 [Form CSVI]
880 µg/mL
